Please respond with reported surviving fraction for every item in the list.
System: FT3469 (normal neural stem cell line)
Assay: surviving fraction (nuclei count normalised to DMSO); higher = more cells surviving (less toxic)
Details: 111.1 nM; exposure time: 72 h
Structures can show the parent of a compound that is named as a salt.
Answer with a number only.

Quick check: surviving fraction of CCn1cc(C(=O)O)c(=O)c2cc(F)c(N3CCNCC3)nc21 ?
1.02

Cool, now CN1C(=O)CC(c2ccccc2)C1=O (stereo not given) [Phensuximide]
1

Cool, now CN1CCC(NC(=O)c2cc(-c3c(O)cc(O)cc3Oc3ccc([N+](=O)[O-])cc3)on2)CC1
0.798

Cool, now Cc1ncc(CO)c(CO)c1O [Pyridoxine hydrochloride]
0.985

Cool, now N=C(NCCCCCCNC(=N)NC(=N)Nc1ccc(Cl)cc1)NC(=N)Nc1ccc(Cl)cc1
0.981

====

Please respond with reported surviving fraction for every item in the list.
Tested on: E28 (patient-derived glioblastoma stem cells of classical subtype)
Experiment: surviving fraction (nuclei count normalised to DMSO); higher = more cells surviving (less toxic)
Details: 111.1 nM; exposure time: 72 h
Answer with a number only.

Quick check: surviving fraction of CCn1c(-c2nonc2N)nc2cnc(Oc3cccc(NC(=O)c4ccc(OCCN5CCOCC5)cc4)c3)cc21 ?
0.996

Cool, now C[C@@H](Oc1cc(-c2cnn(C3CCNCC3)c2)cnc1N)c1c(Cl)ccc(F)c1Cl [Crizotinib]
0.923

Cool, now C=C(C)[C@H]1Cc2c(ccc3c2O[C@@H]2COc4cc(OC)c(OC)cc4[C@@H]2C3=O)O1 [Rotenone]
0.904

Cool, now COc1cc(N)c(Cl)cc1C(=O)NC1CCN(CCCOc2ccc(F)cc2)CC1OC (stereo unspecified) [Cisapride]
0.921

Cool, now CCOC(=O)OC(C)OC1=C(C(=O)Nc2ccccn2)N(C)S(=O)(=O)c2ccccc21 (stereo unspecified) [Ampiroxicam]
0.884

Cool, now COc1cc2ncnc(Nc3cccc(Br)c3)c2cc1OC
0.898

====

Tested on: E34 (patient-derived glioblastoma stem cells of proneural subtype)
Experiment: surviving fraction (nuclei count normalised to DMSO); higher = more cells surviving (less toxic)
Conditions: 3000 nM; exposure time: 72 h
Please respond with reported surviving fraction for every item in the list.
Answer with a number only.

Quick check: surviving fraction of COc1cc(/C=C/C(=O)N2CCC=CC2=O)cc(OC)c1OC [Piperlongumine] ?
0.559

Cool, now CCCCCCCCCCCCCCCC[N+](C)(C)CCN(Cc1ccc(OC)cc1)c1ncccn1 [Thonzonium bromide]
0.0452

Cool, now Clc1ccc(C(Cn2ccnc2)OCc2ccsc2Cl)c(Cl)c1 (centres undefined) [Tioconazole]
0.776

Cool, now CNc1ccc2oc(C[C@H]3O[C@@]4(CC[C@H]3C)O[C@H]([C@H](C)C(=O)c3ccc[nH]3)[C@H](C)C[C@H]4C)nc2c1C(=O)O [Calcimycin]
0.143

====

Please respond with reported phenotypic distance for every item in the list.
Test system: E28
Experiment: phenotypic distance (Euclidean, principal components) from DMSO controls (arbitrary units); higher = stronger morphological change
Conditions: 111.1 nM; exposure time: 72 h
Where a name gives a salt, the structure may show the parent alone.

Quick check: phenotypic distance of COc1ccc(C(=O)CC(=O)c2ccc(C(C)(C)C)cc2)cc1 ?
0.631

Cool, now CC(=O)OC[C@H]1O[C@@H]([S-])[C@H](OC(C)=O)[C@@H](OC(C)=O)[C@@H]1OC(C)=O.CCP(CC)CC.[Au+]
1.25

Cool, now CC(C)C[C@H](NC(=O)CNC(=O)c1cc(Cl)ccc1Cl)B1OC(=O)C(CC(=O)O)(CC(=O)O)O1
7.19

Cool, now CNCCc1ccccn1 [Betahistine mesylate]
0.891

Cool, now Cc1ccc(C(=O)Nc2ccc(CN3CCN(C)CC3)c(C(F)(F)F)c2)cc1C#Cc1cnc2cccnn12
1.57

Cool, now CC1(C)S[C@@H]2[C@H](NC(=O)Cc3ccccc3)C(=O)N2[C@H]1C(=O)O [Benzylpenicillin sodium]
0.61

Cool, now COc1cc2c[n+](C)c3c4cc5c(cc4ccc3c2cc1OC)OCO5 [Nitidine chloride]
1.34

Cool, now Cc1cccn2c(=O)c(-c3nnn[nH]3)cnc12
0.665

Cool, now COC(=O)C[C@](O)(CCCC(C)(C)O)C(=O)O[C@@H]1C(OC)=C[C@]23CCCN2CCc2cc4c(cc2[C@H]13)OCO4
1.37

Cool, now C[C@H](NC(=O)[C@@H](O)c1cc(F)cc(F)c1)C(=O)N[C@@H]1C(=O)N(C)c2ccccc2-c2ccccc21
0.756

====

System: FT3469
Assay: surviving fraction (nuclei count normalised to DMSO); higher = more cells surviving (less toxic)
Conditions: 4.1 nM; exposure time: 72 h
value type: surviving fraction
Answer with a number only.

Quick check: surviving fraction of O=C(/C=C\n1cnc(-c2cc(C(F)(F)F)cc(C(F)(F)F)c2)n1)NNc1cnccn1 [Selinexor] ?
0.614

Cool, now CN1CCC(NC(=O)c2cc(-c3c(O)cc(O)cc3Oc3ccc([N+](=O)[O-])cc3)on2)CC1
0.918

Cool, now CC(=O)O[C@H]1C[C@H](O[C@H]2[C@@H](O)C[C@H](O[C@H]3[C@@H](O)C[C@H](O[C@H]4CC[C@@]5(C)[C@H](CC[C@@H]6[C@@H]5C[C@@H](O)[C@]5(C)[C@@H](C7=CC(=O)OC7)CC[C@]65O)C4)O[C@@H]3C)O[C@@H]2C)O[C@H](C)[C@H]1O[C@@H]1O[C@H](CO)[C@@H](O)[C@H](O)[C@H]1O [Lanatoside C]
0.642

Cool, now CC(C)(C)C1CCN(C(=O)n2ncc(C(O)(c3ccccc3)c3ccccc3)n2)CC1
0.879

Cool, now CC(C)N1CCN(c2ccc(OCC3COC(Cn4cncn4)(c4ccc(Cl)cc4Cl)O3)cc2)CC1 (configuration not stated)
0.997

Cool, now Cc1cc(CN2CCN(c3c(Br)cnc4nc(-c5ccc(N6CCN(C)CC6)cc5)[nH]c34)CC2)no1
0.662

Cool, now C[C@H]1Oc2cc(cnc2N)-c2c(nn(C)c2C#N)CN(C)C(=O)c2ccc(F)cc21
0.89

====

Tested on: E13 (patient-derived glioblastoma stem cells of classical subtype)
Test: phenotypic distance (Euclidean, principal components) from DMSO controls (arbitrary units); higher = stronger morphological change
Conditions: 3000 nM; exposure time: 72 h
Structures can show the parent of a compound that is named as a salt.
value type: phenotypic distance
Answer with a number only.

Quick check: phenotypic distance of CCC(C)n1ncn(-c2ccc(N3CCN(c4ccc(OCC5COC(Cn6cncn6)(c6ccc(Cl)cc6Cl)O5)cc4)CC3)cc2)c1=O (configuration not stated) [Itraconazole] ?
4.62

Cool, now CC(C)CC(=O)N[C@H](C(=O)N[C@H](C(=O)N[C@@H](CC(C)C)[C@@H](O)CC(=O)N[C@@H](C)C(=O)N[C@@H](CC(C)C)[C@@H](O)CC(=O)O)C(C)C)C(C)C [Pepstatin A]
1.04

Cool, now OCCN1CCN(CCCN2c3ccccc3Sc3ccc(Cl)cc32)CC1 [Perphenazine]
3.61

Cool, now Nc1ccc(-c2ccc3ncc4ccc(=O)n(-c5cccc(C(F)(F)F)c5)c4c3c2)cn1 [Torin2]
4.72

Cool, now C[C@@H](O[C@H]1OCCN(Cc2n[nH]c(=O)[nH]2)[C@H]1c1ccc(F)cc1)c1cc(C(F)(F)F)cc(C(F)(F)F)c1 [Aprepitant]
1.13

Cool, now CCC(=O)OCC(=O)[C@@]1(OC(=O)CC)[C@H](C)C[C@H]2[C@H]3[C@H]([C@@H](O)C[C@@]21C)[C@@]1(C)C=CC(=O)C=C1C[C@H]3Cl [Alclometasone dipropionate]
1.47

Cool, now CC[C@@]1(O)C(=O)OCc2c1cc1n(c2=O)Cc2cc3c(CN(C)C)c(O)ccc3nc2-1 [Topotecan]
7.15

Cool, now O=C1c2c(O)ccc(O)c2C(=O)c2c(NCCNCCO)ccc(NCCNCCO)c21 [Mitoxantrone]
6.08

Cool, now COc1cc(OC)c(C(=O)CCCN2CCCC2)c(OC)c1 [Buflomedil hydrochloride]
0.71

Cool, now O=C(Nc1ccc([N+](=O)[O-])cc1Cl)c1cc(Cl)ccc1O [Niclosamide]
8.06

Cool, now COc1cc(N)c(Cl)cc1C(=O)NC1CCN(CCCOc2ccc(F)cc2)CC1OC (configuration not stated) [Cisapride]
0.549

Cool, now Nc1nc(=O)c2nc(CNc3ccc(C(=O)N[C@@H](CCC(=O)O)C(=O)O)cc3)cnc2[nH]1 [Folic acid]
0.805

Cool, now CCOC(=O)OC(C)OC(=O)[C@@H]1N2C(=O)[C@@H](NC(=O)[C@H](N)c3ccccc3)[C@H]2SC1(C)C (some centres not stated) [Bacampicillin hydrochloride]
0.628

Cool, now c1ccc2c(c1)[I+]c1ccccc1-2 [Diphenyleneiodonium chloride]
5.24

Cool, now Cc1cc(C(C)(C)CC(C)(C)C)ccc1OCCOCC[N+](C)(C)Cc1ccccc1 [Methyl benzethonium chloride]
7.09

Cool, now Cc1ncc(CO)c(CO)c1O [Pyridoxine hydrochloride]
1.55

Cool, now C[C@@H]1CN([C@H]2CC[C@](C#N)(c3ccc(F)cc3)CC2)CC[C@]1(C(=O)O)c1ccccc1 [Levocabastine hydrochloride]
0.712
